system: Dengue virus serotype 2 (DENV2), strain New Guinea C; experiment: Antiviral evaluation; type: cell-based; settings: Dengue virus, DENV2, 48 h; HFF-1 cells, MOI 0.1, AUC of viral burden over 2 days
Recorded EC50 for the following compounds
assayReadout: EC50

NC(=O)c1nc(F)c[nH]c1=O ... > 500 µM
CC(C)OC(=O)[C@H](C)N[P@](=O)(OC[C@H]1O[C@@H](n2ccc(=O)[nH]c2=O)[C@](C)(F)[C@@H]1O)Oc1ccccc1 ... > 10 µM

====

tested on: Dengue virus serotype 2 (DENV2), strain New Guinea C; assay: Antiviral evaluation; assay type: cell-based; conditions: Dengue virus, DENV2, 72 h; HUH-7 cells, MOI 0.01, AUC of viral burden over 3 days; read-out: EC50
assayReadout: EC50

CC(C)OC(=O)[C@H](C)N[P@](=O)(OC[C@H]1O[C@@H](n2ccc(=O)[nH]c2=O)[C@](C)(F)[C@@H]1O)Oc1ccccc1 [SOF, sofosbuvir] ... 6.96 µM

====

system: Dengue virus serotype 2 (DENV2), strain New Guinea C; assay: Antiviral evaluation; assay type: cell-based; details: HUH-7 cells, MOI 0.01, AUC of viral burden over 3 days; read-out: EC50
Recorded EC50 for the following compounds
assayReadout: EC50 (µM)

NC(=O)c1nc(F)c[nH]c1=O ... 149
COCCCCCCCCCN1C[C@H](O)[C@@H](O)[C@H](O)[C@H]1CO.Cl ... 23.8

====

assay: WST-1 cell proliferation assay, uninfected HFF-1 cells; settings: human
assayReadout: CC50 at 72 h

CC(C)OC(=O)[C@H](C)N[P@](=O)(OC[C@H]1O[C@@H](n2ccc(=O)[nH]c2=O)[C@](C)(F)[C@@H]1O)Oc1ccccc1 [SOF, sofosbuvir] ... > 10 µM
NC(=O)c1nc(F)c[nH]c1=O [FAV, favipiravir] ... > 500 µM

====

test system: HFF-1 cells; assay: WST-1 cell proliferation assay, uninfected HFF-1 cells; details: uninfected HFF-1 cells, 72 h
assayReadout: CC50

COCCCCCCCCCN1C[C@H](O)[C@@H](O)[C@H](O)[C@H]1CO.Cl ... > 400 µM

====

assay: WST-1 cell proliferation assay, uninfected SK-N-MC cells; details: human
Recorded CC50 at 72 h for the following compounds
assayReadout: CC50 at 72 h

CC(C)OC(=O)[C@H](C)N[P@](=O)(OC[C@H]1O[C@@H](n2ccc(=O)[nH]c2=O)[C@](C)(F)[C@@H]1O)Oc1ccccc1 ... > 10 µM
NC(=O)c1nc(F)c[nH]c1=O ... > 500 µM

====

experiment: WST-1 cell proliferation assay, uninfected HUH-7 cells; details: human
assayReadout: CC50 at 72 h

NC(=O)c1nc(F)c[nH]c1=O [FAV, favipiravir] ... > 500 µM
CC(C)OC(=O)[C@H](C)N[P@](=O)(OC[C@H]1O[C@@H](n2ccc(=O)[nH]c2=O)[C@](C)(F)[C@@H]1O)Oc1ccccc1 [SOF, sofosbuvir] ... > 10 µM
